# Tested on: (R)-2-octanol dehydrogenase
# ASSAY PROCEDURE: Reduction activity of the enzyme of Example 3 on various ketones, NADH as coenzyme
# Format: biochemical, Pichia finlandica
# REPORTED CONDITIONS: reduction activity of 4-chloroacetoacetic acid ethyl ester taken as 100; NADH as coenzyme
Listed next: entries and their corresponding relative activity, reduction reaction.
Provide a numeric answer; units are not to be included.

MOLECULE	TGT	relative activity, reduction reaction
CCOC(=O)CC(=O)CCl [Ethyl 4-chloroacetoacetate]	(R)-2-octanol dehydrogenase	100

Query: Given the entry CC(C)=O [Acetone] , what relative activity, reduction reaction was observed with (R)-2-octanol dehydrogenase?
Response: 1.82

Query: And the next one, CCCCCCC(C)=O [2-Octanone] ?
Response: 31.2

Query: And the next one, CC(=O)c1ccccc1 [Acetophenone] ?
Response: 45.3

Query: And the next one, CC(=O)CCO [4-Hydroxy-2-butanone] ?
Response: 0.691

Query: And the next one, CCC(C)=O [2-Butanone] ?
Response: 7.99

Query: And the next one, CCOC(=O)CC(C)=O [Ethyl acetoacetate] ?
Response: 106

Query: And the next one, CCC=O [Propionaldehyde] ?
Response: 18.4

Query: And the next one, CC(=O)COc1ccccc1 [1-Phenoxy-2-propanone] ?
Response: 54.2
